These entries and their values trace back to patent EP2776398B1.

target: vanilloid receptor 1 (VR1/TRPV1 receptor) (Homo sapiens); construct: expressed in transfected cells; host or cells: CHO K1 cells (ECACC), stably transfected; experiment: Functional testing on vanilloid receptor 1: FLIPR Ca2+ influx assay against capsaicin (Cap) in transfected CHO K1 cells (pharmacological method II); type: cell-based; conditions: @ 1µM; human VR1 in CHO K1 cells; capsaicin; relative to maximum inhibition with 10 µM capsazepine; read-out: inhibition (as a percentage), printed in column (f) Ki (human being) [nM] Cap
Sequence (Q8NER1 whole entry): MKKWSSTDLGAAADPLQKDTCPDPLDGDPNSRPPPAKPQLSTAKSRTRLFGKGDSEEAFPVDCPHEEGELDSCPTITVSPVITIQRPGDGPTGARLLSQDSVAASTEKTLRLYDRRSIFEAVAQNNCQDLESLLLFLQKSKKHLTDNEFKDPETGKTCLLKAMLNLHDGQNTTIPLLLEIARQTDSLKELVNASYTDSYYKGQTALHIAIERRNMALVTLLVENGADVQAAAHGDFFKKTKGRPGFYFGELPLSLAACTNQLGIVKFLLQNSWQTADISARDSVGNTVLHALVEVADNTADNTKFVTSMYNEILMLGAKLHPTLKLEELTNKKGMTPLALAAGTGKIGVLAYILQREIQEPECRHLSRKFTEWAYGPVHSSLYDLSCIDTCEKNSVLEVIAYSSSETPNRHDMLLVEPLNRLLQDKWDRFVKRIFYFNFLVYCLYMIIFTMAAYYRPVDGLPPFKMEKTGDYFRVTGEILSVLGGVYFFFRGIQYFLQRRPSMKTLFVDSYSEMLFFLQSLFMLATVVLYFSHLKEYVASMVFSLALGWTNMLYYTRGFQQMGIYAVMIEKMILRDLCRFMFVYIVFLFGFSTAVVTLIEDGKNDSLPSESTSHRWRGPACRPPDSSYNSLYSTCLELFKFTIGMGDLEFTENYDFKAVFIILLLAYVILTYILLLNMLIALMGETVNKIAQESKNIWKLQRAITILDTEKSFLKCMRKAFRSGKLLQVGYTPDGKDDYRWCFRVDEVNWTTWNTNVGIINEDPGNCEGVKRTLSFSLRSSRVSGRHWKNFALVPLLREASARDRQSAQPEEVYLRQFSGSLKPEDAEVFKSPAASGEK
ASSAY_METRIC: inhibition at 1 µM (%)
The answer is to be given in %; state only the numeric part.

Data request: GET /values?readout=inhibition at 1 µM&system=vanilloid receptor 1 (VR1/TRPV1 receptor) (Homo sapiens)&item= CCOc1cc(C)cc(-n2nc(C(F)(F)F)cc2CNC(=O)Nc2ccc(COCCO)c(F)c2)c1
Data returned: 15

Data request: Give vanilloid receptor 1 (VR1/TRPV1 receptor) (Homo sapiens) inhibition at 1 µM for O=C(NCc1cc(C(F)(F)F)nn1-c1cccc(F)c1)Nc1ccc(OCC(O)CO)cc1 (stereo not shown)
Data returned: 34

Data request: What inhibition at 1 µM appears in the records for this compound with vanilloid receptor 1 (VR1/TRPV1 receptor) (Homo sapiens)? CC(C(=O)NCc1cc(C(C)(C)C)nn1-c1ccc(F)cc1)c1ccc(COCCO)c(F)c1 (stereo not shown)
Data returned: 33

Data request: I'm curious: which inhibition at 1 µM was measured for CC(C)(C)c1cc(CNC(=O)Nc2ccc(COCCO)c(F)c2)n(-c2ccc(F)cc2)n1 tested on vanilloid receptor 1 (VR1/TRPV1 receptor) (Homo sapiens)?
Data returned: 23
